Test system: adult, male Wistar rats
Assay: Sleep-wakefulness monitoring (SCORE-2000, EEG/EMG) in rats
Assay type: in vivo, rat
Details: oral bolus at CT-18, 30 mg/kg, minutes
measured parameter: LONGEST UNINTERRUPTED SLEEP BOUT 30 mg/kg

Below, 2 compounds whose answers are already recorded.
Cc1cc2c(s1)Nc1ccccc1N=C2N1CCN(CCCC(=O)O)CC1 2.0 ± 1.5 min
Cc1cc2c(s1)Nc1ccccc1N=C2N1CCN(CC(C)(C)C(=O)NS(C)(=O)=O)CC1 13.6 ± 2.7 min

I have this compound here, "CC(C)(CN1CCN(C2=Nc3ccccc3Nc3sccc32)CC1)C(=O)O" , and I need its recorded LONGEST UNINTERRUPTED SLEEP BOUT 30 mg/kg. 4.1 ± 2.1 min

# input compound: "Cc1cc2c(s1)Nc1ccccc1N=C2N1CCN(CCC(=O)O)CC1" ; wanted: its LONGEST UNINTERRUPTED SLEEP BOUT 30 mg/kg 5.7 ± 1.8 min

---

Molecular target: 5HT2a (hctx) (Homo sapiens, UniProt P28223)
Sequence (P28223 whole entry): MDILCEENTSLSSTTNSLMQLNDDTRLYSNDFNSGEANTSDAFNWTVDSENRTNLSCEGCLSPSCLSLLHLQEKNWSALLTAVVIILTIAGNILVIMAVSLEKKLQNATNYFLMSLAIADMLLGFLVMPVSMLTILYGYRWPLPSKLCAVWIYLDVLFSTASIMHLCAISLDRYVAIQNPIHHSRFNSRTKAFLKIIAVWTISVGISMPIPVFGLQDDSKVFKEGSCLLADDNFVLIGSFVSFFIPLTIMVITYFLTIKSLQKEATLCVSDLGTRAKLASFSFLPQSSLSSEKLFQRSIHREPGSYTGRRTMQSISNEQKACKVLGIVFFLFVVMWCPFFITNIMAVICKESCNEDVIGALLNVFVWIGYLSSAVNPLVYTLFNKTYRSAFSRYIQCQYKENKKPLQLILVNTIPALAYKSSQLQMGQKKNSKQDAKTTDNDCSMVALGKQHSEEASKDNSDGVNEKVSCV
measured parameter: pKi
pKi field: float, defined as -log10 of concentration (mol/L).

Consider the worked cases shown below.
Cc1cc2c(s1)Nc1ccccc1N=C2N1CCN(CCC(=O)O)CC1 6.63
CC(C)c1cc2c(s1)Nc1ccccc1N=C2N1CCN(CC(C)(C)C(=O)O)CC1 7.14

Look at this compound and give its reported pKi. "Cc1cc2c(s1)Nc1ccccc1N=C2N1CCN(CC2(C(=O)O)CC2)CC1" 7.23

May I ask what pKi has been recorded for "Cc1cc2c(s1)Nc1ccccc1N=C2N1CCN(CC(C)(C)C(=O)NS(C)(=O)=O)CC1" ? 6.00

Quick check: pKi of "Cc1ccc2c(c1)Nc1sc(C)cc1C(N1CCN(CC(C)(C)C(=O)O)CC1)=N2" ? 7.55

---

NREM CUMULATION 10 mg/kg values for the compounds below.
Tested on: adult, male Wistar rats
Experiment: Sleep-wakefulness monitoring (SCORE-2000, EEG/EMG) in rats
Assay type: in vivo, rat
Details: oral bolus at CT-18, 10 mg/kg, minutes
Express it in min; write the number only.

Examples with their reported NREM CUMULATION 10 mg/kg follow.
Cc1ccc2c(c1)Nc1sc(C)cc1C(N1CCN(CC(C)(C)C(=O)O)CC1)=N2 43
Cc1cc2c(s1)Nc1ccccc1N=C2N1CCN(CCC(=O)O)CC1 10
Cc1ccc2c(c1)Nc1sc(C)cc1C(N1CCN(CCC(=O)O)CC1)=N2 7
CC(C)(CN1CCN(C2=Nc3ccccc3Nc3sccc32)CC1)C(=O)O 6

Shift focus to the following entry.
// returns reported NREM CUMULATION 10 mg/kg for input "CCc1cc2c(s1)Nc1ccccc1N=C2N1CCN(CC(C)(C)C(=O)O)CC1" 48

---

Test system: adult, male Wistar rats
Assay: Sleep-wakefulness monitoring (SCORE-2000, EEG/EMG) in rats
Assay type: in vivo, rat
Settings: oral bolus at CT-18, 10 mg/kg, minutes
Labelling: NREM CUMULATION 10 mg/kg reported below 40 min becomes True; at or above becomes False.

Cc1cc2c(s1)Nc1cc(F)ccc1N=C2N1CCN(CC(C)(C)C(=O)O)CC1 False
CC(C)c1cc2c(s1)Nc1ccccc1N=C2N1CCN(CC(C)(C)C(=O)O)CC1 False

Does the reported NREM CUMULATION 10 mg/kg of "Cc1cc2c(s1)Nc1ccccc1N=C2N1CCN(CCCC(=O)O)CC1" stay below 40 min? True

Field: below-cutoff. Rule: recorded NREM CUMULATION 10 mg/kg strictly less than 40 min. Subject: "Cc1cc2c(s1)Nc1ccccc1N=C2N1CCN(CC2(C(=O)O)CC2)CC1" True

Below 40 min on NREM CUMULATION 10 mg/kg? Entry "COc1ccc2c(c1)Nc1sc(C)cc1C(N1CCN(CC(C)(C)C(=O)O)CC1)=N2" True

Hello, I'm reviewing records and need to know if NREM CUMULATION 10 mg/kg of "Cc1cc2c(s1)Nc1ccccc1N=C2N1CCN(CC(C)(C)C(=O)NS(C)(=O)=O)CC1" is below 40 min. Could you check? True

Consider "Cc1ccc2c(c1)N=C(N1CCN(CC(C)(C)C(=O)O)CC1)c1cc(C)sc1N2" . Does its NREM CUMULATION 10 mg/kg lie strictly below 40 min? True

API: query returns whether the molecule falls strictly under 40 min in NREM CUMULATION 10 mg/kg. Query: "Cc1cc2c(s1)Nc1ccccc1N=C2N1CCN(CC(C)(C)C(=O)O)CC1" False

---

Target: human recombinant M2 expressed in CHO cells (Homo sapiens, UniProt P08172)
Sequence (P08172 whole entry): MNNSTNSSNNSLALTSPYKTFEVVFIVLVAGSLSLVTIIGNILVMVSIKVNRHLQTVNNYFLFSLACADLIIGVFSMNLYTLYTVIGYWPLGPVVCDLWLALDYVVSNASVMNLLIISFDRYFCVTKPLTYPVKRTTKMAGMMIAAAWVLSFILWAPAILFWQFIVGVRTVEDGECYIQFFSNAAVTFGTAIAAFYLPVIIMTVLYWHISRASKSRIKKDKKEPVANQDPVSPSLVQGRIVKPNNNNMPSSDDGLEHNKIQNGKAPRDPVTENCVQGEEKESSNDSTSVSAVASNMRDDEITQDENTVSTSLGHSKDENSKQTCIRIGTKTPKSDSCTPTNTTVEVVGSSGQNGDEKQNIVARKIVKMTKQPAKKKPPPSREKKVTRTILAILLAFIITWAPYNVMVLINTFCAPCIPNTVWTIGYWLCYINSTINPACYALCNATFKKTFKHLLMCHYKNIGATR
Experiment: M2 muscarinic receptor binding assay
Conditions: Table 7A, M1 M2 M3
measured parameter: Ki

CC(C)(CN1CCN(C2=Nc3ccccc3Nc3sccc32)CC1)C(=O)O > 10 µM

Using the record for "CCc1cc2c(s1)Nc1ccccc1N=C2N1CCN(CC(C)(C)C(=O)O)CC1" , report its Ki. > 10 µM

For the molecule shown here, "Cc1cc2c(s1)Nc1ccccc1N=C2N1CCN(CC(C)(C)C(=O)NS(C)(=O)=O)CC1" , give the reported Ki. > 10 µM

Sample "CC(C)c1cc2c(s1)Nc1ccccc1N=C2N1CCN(CC(C)(C)C(=O)O)CC1" — what was its Ki? > 10 µM

Give its Ki value. Item: "Cc1cc2c(s1)Nc1ccccc1N=C2N1CCN(CC(C)(C)C(=O)O)CC1" > 10 µM

Consider the molecule "Cc1cc2c(s1)Nc1ccccc1N=C2N1CCN(CC2(C(=O)O)CC2)CC1" and give its measured Ki. > 10 µM

// Ki lookup, key: "Cc1cc2c(s1)Nc1ccccc1N=C2N1CCN(CCC(=O)O)CC1" > 10 µM

---

Molecular target: H1 (hr) (Homo sapiens, UniProt P35367)
Construct: Novascreen, MDS, Cerep (assay providers)
Sequence (P35367 whole entry): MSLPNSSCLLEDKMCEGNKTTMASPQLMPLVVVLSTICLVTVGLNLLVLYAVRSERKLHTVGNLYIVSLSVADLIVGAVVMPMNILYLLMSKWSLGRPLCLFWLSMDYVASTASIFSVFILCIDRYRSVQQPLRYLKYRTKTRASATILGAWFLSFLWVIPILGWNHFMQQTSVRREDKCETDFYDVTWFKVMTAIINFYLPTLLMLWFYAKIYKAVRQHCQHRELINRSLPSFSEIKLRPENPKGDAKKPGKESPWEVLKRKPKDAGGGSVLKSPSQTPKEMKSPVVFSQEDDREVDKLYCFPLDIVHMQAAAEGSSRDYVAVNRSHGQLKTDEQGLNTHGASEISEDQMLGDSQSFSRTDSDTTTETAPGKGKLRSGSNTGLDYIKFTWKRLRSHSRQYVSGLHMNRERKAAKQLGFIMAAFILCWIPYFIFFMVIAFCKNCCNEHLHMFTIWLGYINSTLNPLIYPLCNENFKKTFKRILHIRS
Assay: H1 (hr) MDS binding assay
Conditions: Table 7A; Ki in nM
measured parameter: Ki (nM)
Quick reminder: number only, in nM, skip the unit.

Find the recorded Ki belonging to "Cc1cc2c(s1)Nc1ccccc1N=C2N1CCN(CC(C)(C)C(=O)O)CC1" and report it. 44

---

Recorded LONGEST UNINTERRUPTED SLEEP BOUT 10 mg/kg for the following compounds
Tested on: adult, male Wistar rats
Assay: Sleep-wakefulness monitoring (SCORE-2000, EEG/EMG) in rats
Assay type: in vivo, rat
Details: oral bolus at CT-18, 10 mg/kg, minutes
A number alone suffices; assume min.

Worked cases, answers included:
compound	reading unit	val
CC(C)(CN1CCN(C2=Nc3ccccc3Nc3sccc32)CC1)C(=O)O [Compound 1]	min	-7.0
COc1ccc2c(c1)Nc1sc(C)cc1C(N1CCN(CC(C)(C)C(=O)O)CC1)=N2 [Compound 98]	min	-6.2

# next compound below
So what does the record say about LONGEST UNINTERRUPTED SLEEP BOUT 10 mg/kg for Cc1ccc2c(c1)Nc1sc(C)cc1C(N1CCN(CC(C)(C)C(=O)O)CC1)=N2 [Compound 95] ? 15.8

---

Biological target: 5HT2a (h R) (Homo sapiens, UniProt P28223)
measured parameter: Ki (nM)
# output: bare number, implied unit nM

Lab note: need Ki for Cc1cc2c(s1)Nc1ccccc1N=C2N1CCN(CC(C)(C)C(=O)O)CC1 [Compound 46] on 5HT2a (h R) (Homo sapiens, UniProt P28223), anyone have it? 200

---

Tested on: adult, male Wistar rats
Experiment: Sleep-wakefulness monitoring (SCORE-2000, EEG/EMG) in rats
Assay type: in vivo, rat
Conditions: oral bolus at CT-18, 10 mg/kg, minutes
Recorded LONGEST UNINTERRUPTED SLEEP BOUT 10 mg/kg, one value per entry.
Give the quantity in min, number only.

Would you mind telling me what LONGEST UNINTERRUPTED SLEEP BOUT 10 mg/kg value was observed for "Cc1cc2c(s1)Nc1ccccc1N=C2N1CCN(CCCC(=O)O)CC1" ? -3.0

Entry "Cc1cc2c(s1)Nc1cc(F)ccc1N=C2N1CCN(CC(C)(C)C(=O)O)CC1" has what LONGEST UNINTERRUPTED SLEEP BOUT 10 mg/kg? 5.9

Name the recorded LONGEST UNINTERRUPTED SLEEP BOUT 10 mg/kg for "Cc1cc2c(s1)Nc1ccccc1N=C2N1CCN(CC2(C(=O)O)CC2)CC1" . 10.7

What value of LONGEST UNINTERRUPTED SLEEP BOUT 10 mg/kg has been reported for the following compound? "Cc1cc2c(s1)Nc1ccccc1N=C2N1CCN(CC(C)(C)C(=O)NS(C)(=O)=O)CC1" 5.7

---

Target: H1 (hr) (Homo sapiens)
Construct: Novascreen, MDS, Cerep (assay providers)
Test: H1 (hr) Novascreen binding assay
Settings: Table 7A; Ki in nM
Consider the following compounds and their measured Ki readings.

Guide cases for Ki, answers given:
compound	Ki
Cc1cc2c(s1)Nc1ccccc1N=C2N1CCN(CCC(=O)O)CC1 [Compound 92]	119 nM
CCc1cc2c(s1)Nc1ccccc1N=C2N1CCN(CC(C)(C)C(=O)O)CC1 [Compound 90]	70 nM
Cc1ccc2c(c1)Nc1sc(C)cc1C(N1CCN(CC(C)(C)C(=O)O)CC1)=N2 [Compound 95]	200 nM

I have this compound here, CC(C)c1cc2c(s1)Nc1ccccc1N=C2N1CCN(CC(C)(C)C(=O)O)CC1 [Compound 94] , and I need its recorded Ki. 62 nM

What does the record list as Ki for Cc1cc2c(s1)Nc1ccccc1N=C2N1CCN(CC2(C(=O)O)CC2)CC1 [Compound 91] ? 60.6 nM
